List of pKi values.
target_or_test_system: human CCR2 (Homo sapiens, UniProt P41597)
Sequence (P41597 whole entry): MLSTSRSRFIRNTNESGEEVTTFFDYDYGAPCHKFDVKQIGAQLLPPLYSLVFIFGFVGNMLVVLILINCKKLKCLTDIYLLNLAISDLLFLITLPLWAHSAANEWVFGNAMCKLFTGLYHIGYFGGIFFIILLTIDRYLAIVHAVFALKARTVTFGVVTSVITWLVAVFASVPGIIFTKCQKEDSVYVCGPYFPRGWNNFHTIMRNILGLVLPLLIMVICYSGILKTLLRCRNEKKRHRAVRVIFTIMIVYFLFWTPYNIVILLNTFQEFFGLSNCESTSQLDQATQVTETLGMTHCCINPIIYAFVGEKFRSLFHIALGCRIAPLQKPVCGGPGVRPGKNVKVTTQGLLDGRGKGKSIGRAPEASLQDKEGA
experiment_summary: CCR2 functional calcium assay (FLIPR calcium flux, hMCP-1 challenge)
Assay type: cell-based
Set-up: expressed in transfected cells; host or cells: HEK293 EBNA cells
conditions: HEK293 EBNA cells transfected with human CCR2, hMCP-1 challenge; read-out: Functional CCR2 fKi
Excerpt: The CCR2 receptor couples through the Gi/Gq signaling pathway and results in activation of calcium mobilization. The functional activity of test compounds was routinely tested by measuring the ability of compounds to antagonize CCR2 activity in a dose dependent manner, in HEK293 EBNA cells transfected with the human CCR2 receptor (hMCP-1 challenge), using a calcium flux Fluorescent Imaging Plate Reader FLIPR assay. Non-transfected HEK293 EBNA cells were used as control of non-specific response. […]
pKi: −log10 of the molar value.

The examples below pair each entry with its known result.
[[record]]
record_smiles = "CC(C)OC(=O)c1nc2ccnn2c(O)c1Cc1cccc(Cl)c1"
property_name = "pKi"
reported_value = "> 8.00"

[[record]]
record_smiles = "Oc1c(Cc2cc(F)cc(F)c2)c(C2CC2)nc2ccnn12"
property_name = "pKi"
reported_value = "> 8.00"

[[record]]
record_smiles = "COc1cccc(Cc2c(C)nc3ccnn3c2O)c1"
property_name = "pKi"
reported_value = "6.00 to 7.00"

[[record]]
record_smiles = "CCc1nc2ccnn2c(O)c1Cc1cc(F)cc(C(F)(F)F)c1"
property_name = "pKi"
reported_value = "> 8.00"

[[record]]
record_smiles = "Oc1c(Cc2ccc(Cl)c(Cl)c2)c(C2CC2)nc2ccnn12"
property_name = "pKi"
reported_value = "> 8.00"

[[record]]
record_smiles = "Cc1nc2ccnn2c(O)c1Cc1ccc(Cl)c(Br)c1"
property_name = "pKi"
reported_value = "7.00 to 8.00"

[[record]]
record_smiles = "CCc1nc2ccnn2c(O)c1Oc1ccc(F)c(Cl)c1"
property_name = "pKi"
reported_value = "7.00 to 8.00"

[[record]]
record_smiles = "COCCc1nc2ccnn2c(O)c1Cc1ccc(Cl)cc1"
property_name = "pKi"
reported_value = "7.00 to 8.00"


Need pKi of COCCNC(=O)c1cnn2c(O)c(Cc3ccc(Cl)cc3)c(C)nc12 , thanks.
7.00 to 8.00

I would be grateful if you could share the reported pKi for CCC(=O)c1nc2ccnn2c(O)c1Cc1ccc(Cl)c(Cl)c1 .
7.00 to 8.00
